Provenance of the data: PubChem BioAssay (NCI)

# Tested on: MOLT-4 leukemia
# method-description: NCI tumour cell line growth inhibition, 48 h
Hi there, I'd appreciate the recorded log10 TGI for every entry that follows.
Friendly reminder: values = log10 of TGI, unit µM.

API: value(readout= log10 TGI, system= MOLT-4 leukemia, query= COc1ccc(-c2ccc(/C=N/n3cn[nH]c3=S)o2)c([N+](=O)[O-])c1 )
1.71

Item COc1ccc(C2CC(=O)Nc3c2c(C)nn3-c2nc3ccccc3[nH]2)cc1 (stereo unspecified) with MOLT-4 leukemia - log10 TGI?
-0.49

Query log10 TGI on MOLT-4 leukemia for NN/C(=N\S(=O)(=O)c1cc(Cl)c(Oc2ccc([N+](=O)[O-])cc2Cl)c(Cl)c1)Nc1ccc(Cl)cc1
1.93

Field: log10 TGI (MOLT-4 leukemia). Entry: COc1cc(C2c3cccc4cccc(c34)C3CCC(=O)N32)cc(O)c1O (stereo unspecified)
1.62

Field: log10 TGI (MOLT-4 leukemia). Entry: CC1CCCc2c(-c3ccc(Cl)cc3)nc(N)c(C#N)c21 (stereo unspecified)
1.84

log10 TGI of Clc1ccc(C2=Nc3ccccc3SC(c3ccc(Cl)c(Cl)c3)C2)c(Cl)c1 (stereo unspecified) on MOLT-4 leukemia?
1.26

// map Clc1cc(Cl)cc(N2N=C(c3cccc(Nc4ccncc4)c3)CC2c2ccccc2)c1 (stereo unspecified) to recorded log10 TGI (system: MOLT-4 leukemia)
0.77

Reported log10 TGI for MOLT-4 leukemia, given C[N+](C)(C)CC1Cc2ccccc2C1=O (stereo unspecified) ?
0.69

For the record COc1cc(/C=C2\CCCC3=C2NC(N)=NC3c2cc(OC)c(OC)c(OC)c2)cc(OC)c1OC (stereo unspecified) , what value of log10 TGI is listed for MOLT-4 leukemia?
0.77
